# Target or test system: CDK8/CycC (Homo sapiens, UniProt P49336)
# Construct: purchased Invitrogen PV4402
# Sequence (P49336 whole entry): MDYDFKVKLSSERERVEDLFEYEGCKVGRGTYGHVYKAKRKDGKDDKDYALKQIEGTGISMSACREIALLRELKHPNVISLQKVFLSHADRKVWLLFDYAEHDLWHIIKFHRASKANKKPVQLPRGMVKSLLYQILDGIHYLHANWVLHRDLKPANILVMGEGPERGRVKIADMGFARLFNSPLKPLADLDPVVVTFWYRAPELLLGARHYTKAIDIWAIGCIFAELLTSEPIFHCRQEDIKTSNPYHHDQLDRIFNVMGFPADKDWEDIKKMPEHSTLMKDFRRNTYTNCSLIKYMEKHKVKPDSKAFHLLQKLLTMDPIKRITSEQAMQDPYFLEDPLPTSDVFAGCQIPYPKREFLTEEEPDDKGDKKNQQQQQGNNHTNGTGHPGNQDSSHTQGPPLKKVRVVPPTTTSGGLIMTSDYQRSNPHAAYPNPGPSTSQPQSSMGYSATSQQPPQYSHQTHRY
# Sequence (P24863 whole entry partner): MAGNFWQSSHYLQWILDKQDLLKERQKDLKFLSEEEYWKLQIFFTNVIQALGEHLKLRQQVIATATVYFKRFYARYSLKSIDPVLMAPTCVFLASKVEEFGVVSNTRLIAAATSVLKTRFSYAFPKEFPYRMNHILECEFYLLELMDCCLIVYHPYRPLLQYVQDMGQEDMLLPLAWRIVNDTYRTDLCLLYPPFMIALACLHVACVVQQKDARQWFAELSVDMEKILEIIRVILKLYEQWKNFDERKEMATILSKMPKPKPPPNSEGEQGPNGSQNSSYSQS
# Run description: FRET based Lanthascreen binding competition assay for CDK8 inhibitory activity
# Conditions: CDK8 co-expressed with CycC; numeric value; read-out: IC50
Quantity: IC50 (µM)

INSERT INTO assay_data (chem_smiles, value_unit, test_value) VALUES
  ('Nc1n[nH]c2cnc(C(=O)N3CCC[C@H]3c3ccc(Cl)cc3)cc12', 'µM', 0.34);

###

compounds and their reported pIC50
# Target or test system: CDK8/CycC (Homo sapiens, UniProt P49336)
# Construct: purchased Invitrogen PV4402
# Run description: FRET based Lanthascreen binding competition assay for CDK8 inhibitory activity
# Conditions: CDK8 co-expressed with CycC; class symbols; read-out: IC50
pIC50: −log10 of the molar value.
Quantity: pIC50

INSERT INTO results (compound, test_value) VALUES
  ('Cc1n[nH]c2ncc(C(=O)N3CCC[C@H]3c3ccc(C#N)cc3)cc12', '7.00 to 8.00'),
  ('Cc1n[nH]c2ncc(C(=O)N3C[C@@H](C(N)=O)[C@H](c4ccc(Cl)cc4)C3)cc12', '5.00 to 6.00'),
  ('Nc1n[nH]c2ccc(C(=O)N3CCC[C@@H]3c3ccccc3)cc12 [compound 132]', '6.00 to 7.00'),
  ('O=C(c1ccc2[nH]nc(Cl)c2c1)N1CCCC1c1ccc(C(F)(F)F)cc1 (centres unmarked)', '7.00 to 8.00'),
  ('Nc1n[nH]c2ncc(C(=O)N3CCC[C@H]3c3ccc(Br)cc3)cc12', '7.00 to 8.00'),
  ('Nc1n[nH]c2ccc(C(=O)N3CCCCC3Cc3ccccc3)cc12 (stereo in doubt) [compound 86]', '7.00 to 8.00'),
  ('Cc1n[nH]c2ncc(C(=O)N3CCCC[C@H]3c3ccc(F)cc3)cc12', '7.00 to 8.00'),
  ('Cc1n[nH]c2ncc(C(=O)N3CCCC3c3ccccc3OCC(F)(F)F)cc12 (centres unmarked)', '6.00 to 7.00');
